experimental_target: HLA-A24 type molecule (product of the HLA-A*2402 gene) (human)
measured_endpoint: -log Kd

binder="GLIHLHQNI (modifications not checked) [SEQ ID NO 94]" data_value="5.86 -log Kd (M)"
binder="AFYGVWPLL (modifications not checked) [SEQ ID NO 98]" data_value="7.73 -log Kd (M)"
binder="RYAPACKPL (modifications not checked) [SEQ ID NO 110]" data_value="6.76 -log Kd (M)"
binder="AYYSMVGNW (modifications not checked) [SEQ ID NO 102]" data_value="6.47 -log Kd (M)"
binder="VFPDLGVRV (modifications not checked) [SEQ ID NO 123]" data_value="6.74 -log Kd (M)"
binder="SYTWTGALI (modifications not checked) [SEQ ID NO 108]" data_value="7.13 -log Kd (M)"
binder="LLSTTEWQI (modifications not checked) [SEQ ID NO 109]" data_value="8.34 -log Kd (M)"
binder="VLADFKTWL (modifications not checked) [SEQ ID NO 112]" data_value="6.63 -log Kd (M)"

# credit: patent US20150087809A1
